These data points were gathered from patent US20230126298A1.

For each of the compounds below, state its RLM, % (half-life as % vs. the related nondeuterated compound).
assay: Metabolic stability in rat liver microsomes (RLM); settings: RLM; values in square brackets are within 10% (assay's accuracy), no deuteration effect

// sample [2H]C([2H])(NC)C([2H])([2H])c1c[nH]c2cccc(O)c12 , its RLM, % (half-life as % vs. the related nondeuterated compound) was 160%

// sample [2H]C([2H])(c1c[nH]c2cccc(OC)c12)C([2H])([2H])N(C)C , its RLM, % (half-life as % vs. the related nondeuterated compound) was 190%

###

molecular target: hrMAO-A (Homo sapiens); construct: purchased XenoTech Lot #8213001; test: Metabolic stability in the presence of hrMAO-A; assay type: in vitro ADME; settings: MAO-A, last time point 120 min
MEASURED_PROPERTY: MAO, metabolized or not (R / NR)

Below: 5 compounds and their reported MAO, metabolized or not (R / NR).
compound="CCN(C)CCc1c[nH]c2ccc(O)cc12 [reference compound]" result=R
compound="COc1ccc2[nH]cc(CCN(C)C)c2c1 [reference compound]" result=R
compound="CNCCc1c[nH]c2ccccc12 [reference compound]" result=R
compound="CCN(C)CCc1c[nH]c2ccc(OC)cc12 [reference compound]" result=R
compound="COc1cccc2[nH]cc(CCN(C)C)c12 [reference compound]" result=R

// sample CCN(C)CCc1c[nH]c2cccc(OC)c12 [reference compound] , its MAO, metabolized or not (R / NR) was R

// sample CCNCCc1c[nH]c2ccccc12 [reference compound] , its MAO, metabolized or not (R / NR) was R

// sample CNCCc1c[nH]c2cccc(O)c12 [reference compound] , its MAO, metabolized or not (R / NR) was R

// sample CCN(C)CCc1c[nH]c2ccccc12 [reference compound] , its MAO, metabolized or not (R / NR) was R

// sample CN(C)CCc1c[nH]c2ccc(O)cc12 [reference compound] , its MAO, metabolized or not (R / NR) was R

###

target: hrMAO-A (Homo sapiens, UniProt P21397); construct: purchased XenoTech Lot #8213001; test: Metabolic stability in the presence of hrMAO-A; format: in vitro ADME; details: hrMAO-A, Table 3
Sequence (P21397 whole entry): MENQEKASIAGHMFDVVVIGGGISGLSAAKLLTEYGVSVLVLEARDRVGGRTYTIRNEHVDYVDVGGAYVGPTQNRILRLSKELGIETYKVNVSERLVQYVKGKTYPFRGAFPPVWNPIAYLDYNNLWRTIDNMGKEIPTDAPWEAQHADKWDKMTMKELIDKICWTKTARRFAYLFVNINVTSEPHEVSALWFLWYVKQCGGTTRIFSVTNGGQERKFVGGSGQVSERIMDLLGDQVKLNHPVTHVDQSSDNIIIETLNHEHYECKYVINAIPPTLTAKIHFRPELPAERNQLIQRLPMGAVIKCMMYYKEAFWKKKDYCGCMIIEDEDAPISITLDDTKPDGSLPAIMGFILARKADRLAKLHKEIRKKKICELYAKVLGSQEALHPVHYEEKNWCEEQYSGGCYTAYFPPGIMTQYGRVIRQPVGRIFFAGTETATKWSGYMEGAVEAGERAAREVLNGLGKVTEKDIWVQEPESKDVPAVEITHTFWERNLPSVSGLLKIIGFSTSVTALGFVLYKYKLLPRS
For each of the compounds below, state its Half-life.

// sample [2H]C([2H])(Cc1c[nH]c2ccccc12)N(C)C [DMT-d2] , its Half-life was > 120 min

// sample [2H]C([2H])([2H])N(C([2H])([2H])[2H])C([2H])([2H])C([2H])([2H])c1c[nH]c2ccccc12 , its Half-life was > 120 min

// sample [2H]C([2H])(c1c[nH]c2ccccc12)C([2H])([2H])N(C)C , its Half-life was > 120 min

// sample CN(C)CCc1c[nH]c2ccccc12 [DMT, reference compound] , its Half-life was 27.2 min
